target: N-cadherin expressed on transfected 3T3 cells (Examples 2 and 21); experiment: cell-based or functional assay
Positions of bridges follow the written chain, without caps; N, C: chain ends.
REPORTED PROPERTY: % Inhibition of neurite outgrowth, 250 µg/mL (rat neurons) (%)

- BINDER: "H-CAHGVDC-NH2 (disulfide 1-7 (inferred)) [H-CAHGVDC-NH2]"
  UNIT ANNOTATION: "%"
  OBS VALUE: 0
- BINDER: "Ac-CLRAHGVC-NH2 (disulfide 1-8 (inferred)) [N-Ac-CLRAHGVC-NH2]"
  UNIT ANNOTATION: "%"
  OBS VALUE: 0
- BINDER: "Ac-CHAVDC-NH2 (disulfide 1-6 (inferred)) [N-Ac-CHAVDC-NH2]"
  UNIT ANNOTATION: "%"
  OBS VALUE: 88
- BINDER: "H-CHAVC-NH2 (disulfide 1-5 (inferred)) [H-CHAVC-NH2]"
  UNIT ANNOTATION: "%"
  OBS VALUE: 0
- BINDER: "H-CAHAVDC-NH2 (disulfide 1-7; SMILES CC(C)[C@@H]1NC(=O)[C@H](C)NC(=O)[C@H](Cc2c[nH]cn2)NC(=O)[C@H](C)NC(=O)[C@@H](N)CSSC[C@@H](C(N)=O)NC(=O)[C@H](CC(=O)O)NC1=O) [H-CAHAVDC-NH2]"
  UNIT ANNOTATION: "%"
  OBS VALUE: 0
- BINDER: "H-CHGVC-NH2 (disulfide 1-5 (inferred)) [H-CHGVC-NH2]"
  UNIT ANNOTATION: "%"
  OBS VALUE: 0
